target_under_test: CAv1.2 (Homo sapiens, UniProt Q13936)
run_description: FLIPR data, CAv1.2 channel blocking (Table 6)
Type: cell-based
test_settings: closed state, read-out: CAv1.2 IC50 Closed
quantity_measured: pIC50
pIC50 here is simply -log10 of the concentration when that concentration is written in mol/L.

Take a look at these entries with their results.
molecule: CC(C)([C@H]1C[C@@H](CNc2ccnc(C(F)(F)F)n2)C1)S(=O)(=O)c1cccc(C(F)(F)F)c1 [Compound 691]
pIC50: 5.31
//
molecule: CC(C)([C@H]1C[C@@H](NC(=O)c2ccc(C(F)(F)F)cc2)C1)S(=O)(=O)c1cccc(C(F)(F)F)c1 [Compound 581]
pIC50: 5.41

Here is the next item to consider.
[ask] For the molecule CC(C)([C@H]1C[C@@H](CNC(=O)c2ccc(F)c(Cl)c2)C1)S(=O)(=O)c1cccc(C(F)(F)F)c1 [Compound 685] , what pIC50 is on record?
[reply] 5.33

* * *

Listed molecules paired with reported IC50
target_under_test: human α1H T-type channels (Homo sapiens)
Sequence (O95180 whole entry): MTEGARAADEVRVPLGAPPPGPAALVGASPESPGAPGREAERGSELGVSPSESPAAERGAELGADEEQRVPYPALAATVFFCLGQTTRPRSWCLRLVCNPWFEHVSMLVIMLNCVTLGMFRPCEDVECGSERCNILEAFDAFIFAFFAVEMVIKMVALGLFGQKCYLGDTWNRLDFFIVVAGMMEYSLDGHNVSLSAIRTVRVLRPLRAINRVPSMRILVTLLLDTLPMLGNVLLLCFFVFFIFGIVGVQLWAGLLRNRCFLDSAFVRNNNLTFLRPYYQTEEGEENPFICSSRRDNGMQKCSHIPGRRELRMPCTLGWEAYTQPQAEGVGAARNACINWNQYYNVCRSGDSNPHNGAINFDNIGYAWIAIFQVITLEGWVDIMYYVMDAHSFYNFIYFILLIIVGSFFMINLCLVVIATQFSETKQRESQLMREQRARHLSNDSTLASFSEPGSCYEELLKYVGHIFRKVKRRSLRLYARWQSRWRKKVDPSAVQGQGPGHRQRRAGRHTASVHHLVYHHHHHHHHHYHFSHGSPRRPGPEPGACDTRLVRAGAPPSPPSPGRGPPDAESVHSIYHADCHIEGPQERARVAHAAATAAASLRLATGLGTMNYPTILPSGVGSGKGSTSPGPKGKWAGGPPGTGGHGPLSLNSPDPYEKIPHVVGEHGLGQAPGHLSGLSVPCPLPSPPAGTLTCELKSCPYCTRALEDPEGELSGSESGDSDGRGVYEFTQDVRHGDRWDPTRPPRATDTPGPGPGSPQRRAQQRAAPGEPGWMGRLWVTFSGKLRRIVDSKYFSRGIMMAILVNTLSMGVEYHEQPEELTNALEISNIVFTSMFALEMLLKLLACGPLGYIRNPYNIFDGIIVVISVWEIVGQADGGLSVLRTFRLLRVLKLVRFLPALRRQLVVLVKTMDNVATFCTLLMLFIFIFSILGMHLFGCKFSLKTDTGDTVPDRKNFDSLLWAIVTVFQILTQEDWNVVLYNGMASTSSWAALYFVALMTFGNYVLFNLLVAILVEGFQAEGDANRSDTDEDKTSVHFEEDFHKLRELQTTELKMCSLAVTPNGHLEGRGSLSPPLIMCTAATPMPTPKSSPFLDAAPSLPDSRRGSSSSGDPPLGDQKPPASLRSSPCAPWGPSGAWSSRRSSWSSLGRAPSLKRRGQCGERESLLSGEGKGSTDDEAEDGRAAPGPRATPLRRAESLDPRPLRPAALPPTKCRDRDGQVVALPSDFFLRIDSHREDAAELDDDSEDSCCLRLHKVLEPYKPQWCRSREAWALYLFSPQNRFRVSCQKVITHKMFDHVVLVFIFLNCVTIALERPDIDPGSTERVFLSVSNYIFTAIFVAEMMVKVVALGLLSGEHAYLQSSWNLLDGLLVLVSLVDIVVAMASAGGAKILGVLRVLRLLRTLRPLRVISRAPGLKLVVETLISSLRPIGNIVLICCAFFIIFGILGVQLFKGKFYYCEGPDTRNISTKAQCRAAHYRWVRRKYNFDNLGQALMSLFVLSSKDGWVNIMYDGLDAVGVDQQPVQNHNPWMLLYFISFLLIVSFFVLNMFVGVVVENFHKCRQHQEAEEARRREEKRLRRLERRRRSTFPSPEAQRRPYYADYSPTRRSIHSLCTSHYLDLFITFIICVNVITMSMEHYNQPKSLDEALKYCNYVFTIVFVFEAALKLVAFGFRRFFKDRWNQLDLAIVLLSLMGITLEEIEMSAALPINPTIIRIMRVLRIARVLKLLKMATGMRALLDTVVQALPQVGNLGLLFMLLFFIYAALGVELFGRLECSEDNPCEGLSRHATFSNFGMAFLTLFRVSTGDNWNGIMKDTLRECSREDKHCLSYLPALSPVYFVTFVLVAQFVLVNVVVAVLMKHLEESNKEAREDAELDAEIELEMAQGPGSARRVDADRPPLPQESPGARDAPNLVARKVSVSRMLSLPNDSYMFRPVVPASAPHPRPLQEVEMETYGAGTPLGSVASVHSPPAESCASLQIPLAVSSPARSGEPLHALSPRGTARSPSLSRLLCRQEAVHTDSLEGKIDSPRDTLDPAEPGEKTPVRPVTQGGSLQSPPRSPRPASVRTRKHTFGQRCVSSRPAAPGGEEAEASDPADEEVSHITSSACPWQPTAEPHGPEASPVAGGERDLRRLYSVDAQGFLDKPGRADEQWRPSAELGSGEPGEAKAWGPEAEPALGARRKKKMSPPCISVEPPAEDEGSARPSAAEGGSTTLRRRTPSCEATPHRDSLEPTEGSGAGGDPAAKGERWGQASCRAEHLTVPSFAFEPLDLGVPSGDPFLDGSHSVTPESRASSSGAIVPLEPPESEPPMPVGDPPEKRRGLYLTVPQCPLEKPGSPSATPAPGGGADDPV
run_description: T-type calcium channel block, whole cell patch clamp, α1H
test_settings: HEK cells stably expressing human α1H; mainly non-inactivated protocol; values above 10,000 nM represented as 10000

Use the examples below as a reference point.
molecule: CC(C)(C)OC(=O)N[C@H]1CC[C@@H](S(=O)(=O)c2cccc(C(F)(F)F)c2)CC1
IC50: 3.82 µM

molecule: CC(C)(C)S(=O)(=O)c1ccsc1C(=O)N[C@H]1CC[C@@H](S(=O)(=O)c2cccc(C(F)(F)F)c2)CC1
IC50: 6.46 µM

molecule: CC(C)(CCNC(=O)c1ccc(F)c(C(F)(F)F)c1)S(=O)(=O)c1cc(F)cc(C(F)(F)F)c1
IC50: 1.08 µM

molecule: CC(C)S(=O)(=O)c1cc(C(F)(F)F)cnc1C(=O)N[C@H]1CC[C@@H](S(=O)(=O)c2cccc(C(F)(F)F)c2)CC1
IC50: 3.33 µM

molecule: Cn1nc(C(F)(F)F)cc1C(=O)NC1(C)CCC(S(=O)(=O)c2cccc(C(F)(F)F)c2)CC1 (centres unmarked)
IC50: 1.54 µM

[ask] Consider the molecule shown here: O=C(CNC1CCCCC1)N[C@H]1CC[C@H](CS(=O)(=O)c2cccc(C(F)(F)F)c2)CC1 What is its recorded IC50?
[reply] > 10 µM

[ask] Look up IC50: O=C(N[C@H]1CC[C@@H](S(=O)(=O)c2cccc(C(F)(F)F)c2)CC1)c1cc(C(F)(F)F)ccn1
[reply] 2.86 µM

[ask] IC50 for O=C(N[C@H]1CC[C@@](F)(S(=O)(=O)c2cccc(C(F)(F)F)c2)CC1)[C@H]1CCCCN1 ?
[reply] > 10 µM

[ask] So what's the measured IC50 for this one? O=C(NC[C@H]1C[C@H](S(=O)(=O)c2cccc(C(F)(F)F)c2)C1)c1ccc(F)c(Cl)c1
[reply] > 10 µM

[ask] Dear colleague, I am looking for the recorded IC50 of the following molecule: CC(C)S(=O)(=O)c1cc(C(F)(F)F)cnc1C(=O)NCC(C)(C)S(=O)(=O)c1cccc(C(F)(F)F)c1
[reply] > 10 µM

[ask] Returns the measured IC50 for the input molecule. Input: Cc1nc(S(=O)(=O)N[C@H]2CC[C@@](F)(S(=O)(=O)c3cccc(C(F)(F)F)c3)CC2)cn1C
[reply] > 10 µM

[ask] May I ask what IC50 has been recorded for O=C(N[C@H]1CC[C@@](F)(S(=O)(=O)c2cccc(C(F)(F)F)c2)CC1)c1ccnc(C(F)(F)F)n1 ?
[reply] 1.91 µM

[ask] Any idea what IC50 was measured for O=C(NC[C@H]1C[C@@H](S(=O)(=O)c2cccc(C(F)(F)F)c2)C1)c1cn2cc(C(F)(F)F)ccc2n1 ?
[reply] 4.74 µM

[ask] Name the reported IC50 value associated with the molecule CC(C)(CNS(=O)(=O)c1cccc2nsnc12)S(=O)(=O)c1cccc(C(F)(F)F)c1
[reply] > 10 µM
